STUDY SYSTEM: CYP3A4 (Homo sapiens, UniProt P08684)
Construct: using human liver microsomes; from tissue; host or cells: human liver microsomes
Sequence (P08684 whole entry): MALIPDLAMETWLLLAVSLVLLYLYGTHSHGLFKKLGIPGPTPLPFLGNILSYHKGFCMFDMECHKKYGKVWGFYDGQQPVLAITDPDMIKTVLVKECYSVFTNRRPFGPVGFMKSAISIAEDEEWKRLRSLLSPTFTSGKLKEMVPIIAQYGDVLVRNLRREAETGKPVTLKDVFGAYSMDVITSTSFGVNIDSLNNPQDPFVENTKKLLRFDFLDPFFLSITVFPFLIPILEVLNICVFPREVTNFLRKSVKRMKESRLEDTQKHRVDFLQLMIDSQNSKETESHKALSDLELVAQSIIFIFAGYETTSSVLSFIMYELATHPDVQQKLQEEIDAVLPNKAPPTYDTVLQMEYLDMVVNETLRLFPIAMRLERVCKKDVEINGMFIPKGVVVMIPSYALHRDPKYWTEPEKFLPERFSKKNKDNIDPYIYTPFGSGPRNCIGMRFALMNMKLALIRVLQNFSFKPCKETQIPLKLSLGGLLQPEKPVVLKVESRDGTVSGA
EXPERIMENT SUMMARY: CYP inhibition assay, CYP3A4
Format: in vitro ADME
EXPERIMENTAL SETUP: probe Midazolam (5 μM), human liver microsomes
PROPERTY MEASURED: inhibition at 10 µM (%)
Give a bare numeral; the unit % is implied.

Would you please look over these solved cases?
Cc1cnc(C(=O)Nc2cc(CN3CCC(F)(F)[C@H](N)C3)cc(-c3ccc(C(F)(F)F)nc3)c2)cc1-c1ccccc1 | 0.68
Cc1cn(-c2cc(CN3CCC[C@H](N)C3)cc(NC(=O)c3cc(-c4ccccc4)ccn3)c2)cn1 | 74

// switching to the query molecule
Ask: What value of measured inhibition at 10 µM is listed for `Cc1ccc(-c2cc(CN3CCC(F)(F)[C@H](N)C3)cc(NC(=O)c3cc(-c4ccccc4)ccn3)c2)cn1` ?
Reply: -15.4

====

EXPERIMENT SUMMARY: Dedicated pharmacokinetic study, single oral dose
Type: in vivo, C57BL/6 mice
EXPERIMENTAL SETUP: mouse, plasma; PO dose of 50 mg/kg, female C57BL/6 mice
Procedure: For dedicated pharmacokinetic analyses of compounds 29, 122 and 131, C57BL/6 mice (19-21 g, 10-12 weeks, female, purchased from Jihui Laboratory Animal Co. LTD) were given free access to food and water throughout the in-life phase of the study. Mice were orally dosed once with 50 mg/kg (10 mL/kg) of either compound 29, 122 and 131 with each compound formulated in 90% saline, 5% Solutol HS15 and 5% DMSO. […]
// values below are reported bioavailability
Give a bare numeral; the unit % is implied.

Would you please look over these solved cases?
Cc1ccc(-c2cc(CN3CCC(F)(F)[C@H](N)C3)cc(NC(=O)c3cc(-c4ccccc4)ccn3)c2)cn1 | 75
Cc1cn(-c2cc(CN3CCC[C@H](N)C3)cc(NC(=O)c3cc(-c4ccccc4)ccn3)c2)cn1 | 40

// switching to the query molecule
Ask: What value of measured bioavailability is listed for `Cc1cnc(C(=O)Nc2cc(CN3CCC(F)(F)[C@H](N)C3)cc(-c3ccc(C(F)(F)F)nc3)c2)cc1-c1ccccc1` ?
Reply: 54
